Below are molecules with their pKi as measured on Adenosine receptor A1 (Rattus norvegicus, UniProt P25099).
Sequence (P25099 whole entry): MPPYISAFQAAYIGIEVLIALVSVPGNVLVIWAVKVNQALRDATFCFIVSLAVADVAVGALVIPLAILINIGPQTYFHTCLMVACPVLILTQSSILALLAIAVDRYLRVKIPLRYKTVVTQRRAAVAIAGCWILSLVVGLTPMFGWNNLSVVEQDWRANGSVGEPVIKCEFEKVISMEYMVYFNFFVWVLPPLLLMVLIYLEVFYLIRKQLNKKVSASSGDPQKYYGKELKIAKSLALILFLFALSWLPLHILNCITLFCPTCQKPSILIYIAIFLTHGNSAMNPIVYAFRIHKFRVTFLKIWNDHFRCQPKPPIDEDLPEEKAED
pKi: −log10 of the molar value.
measurement.name: pKi

Worked examples, 4 molecules total:
>>> value_measured("CNC(=O)[C@H]1O[C@@H](n2cnc3c(NCc4ccc(N)c(I)c4)ncnc32)[C@H](O)[C@@H]1O")
7.74
>>> value_measured("CNC(=O)[C@H]1OC(n2cnc3c(NCc4ccc(Cl)cc4)ncnc32)[C@H](O)[C@@H]1O (some centres undefined)")
6.32
>>> value_measured("CNC(=O)[C@H]1O[C@@H](n2cnc3c(NCc4cccc(Cl)c4)ncnc32)[C@H](O)[C@@H]1O")
6.04
>>> value_measured("CCNC(=O)[C@H]1O[C@@H](n2cnc3c(N)[n+](Cc4ccc([N+](=O)[O-])cc4)cnc32)[C@H]([O-])[C@@H]1O")
6.47

P: CNC(=O)[C@H]1OC(n2cnc3c(NCc4cccc(NC(C)=O)c4)ncnc32)[C@H](O)[C@@H]1O (some centres undefined)
Q: CNC(=O)[C@H]1OC(n2cnc3c(NCc4cccc(C(F)(F)F)c4)ncnc32)[C@H](O)[C@@H]1O (some centres undefined)
Prompt: # compare pKi for P vs Q ; return the one with the smaller value Provide the label of your selected option as the answer.
Completion: P
(P: 5.53, Q: 6.30)
